Target: HIV Env of isolate Q769.d22 (clade A) (HIV)
Test: cell-based or functional assay
In this section, each of the binders is paired with its reported IC80 (µg/ml) with constrains.
Kindly answer with a numeric value in µg/mL, unit omitted.

Write down IC80 (µg/ml) with constrains measured for item ePGDM9 (antibody, V domains shown) VH: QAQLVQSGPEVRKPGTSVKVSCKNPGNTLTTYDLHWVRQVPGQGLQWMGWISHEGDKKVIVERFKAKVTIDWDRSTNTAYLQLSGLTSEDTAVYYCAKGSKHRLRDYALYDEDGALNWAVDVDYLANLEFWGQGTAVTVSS VL: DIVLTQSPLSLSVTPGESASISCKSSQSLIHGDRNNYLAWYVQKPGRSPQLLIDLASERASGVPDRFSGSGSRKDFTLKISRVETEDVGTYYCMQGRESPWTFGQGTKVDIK 0.009

Answer with the recorded IC80 (µg/ml) with constrains for the binder listed here: PGDM1400 (antibody, V domains shown) VH: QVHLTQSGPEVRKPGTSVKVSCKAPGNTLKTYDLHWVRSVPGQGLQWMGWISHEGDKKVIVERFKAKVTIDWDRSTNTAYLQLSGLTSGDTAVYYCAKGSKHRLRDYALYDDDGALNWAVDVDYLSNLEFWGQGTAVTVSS VL: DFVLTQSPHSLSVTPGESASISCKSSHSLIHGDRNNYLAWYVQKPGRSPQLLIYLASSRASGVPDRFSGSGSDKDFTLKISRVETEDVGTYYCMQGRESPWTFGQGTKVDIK 0.028

Give the measured IC80 (µg/ml) with constrains for ePGDM13 (antibody, V domains shown) VH: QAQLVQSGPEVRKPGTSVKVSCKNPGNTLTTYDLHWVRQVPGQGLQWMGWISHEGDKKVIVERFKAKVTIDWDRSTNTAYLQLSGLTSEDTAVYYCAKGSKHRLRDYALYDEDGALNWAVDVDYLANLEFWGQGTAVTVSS VL: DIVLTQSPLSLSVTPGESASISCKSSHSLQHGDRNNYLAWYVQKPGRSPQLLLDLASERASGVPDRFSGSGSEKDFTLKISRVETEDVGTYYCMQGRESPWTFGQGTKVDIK 0.01

Others:
Given the binder ePGDM5 (antibody, V domains shown) VH: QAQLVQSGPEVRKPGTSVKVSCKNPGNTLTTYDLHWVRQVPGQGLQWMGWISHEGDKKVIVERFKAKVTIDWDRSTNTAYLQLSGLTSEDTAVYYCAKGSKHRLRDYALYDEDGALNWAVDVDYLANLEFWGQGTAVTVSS VL: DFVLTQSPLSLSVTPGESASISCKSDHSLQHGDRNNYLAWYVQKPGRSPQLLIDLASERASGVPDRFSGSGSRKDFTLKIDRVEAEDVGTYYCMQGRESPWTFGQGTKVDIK , write its reported IC80 (µg/ml) with constrains. 0.011
